# targetSystem: human keratin (human)
# protocolSummary: batch adsorption isotherm (affinity chromatography): peptide coupled to Toyopearl AF-Epoxy-650 resin, human keratin in PBS pH 7.4 in solution, Langmuir fit
Bridges are numbered along the chain shown (N, C = ends). Where no end group is shown, it is not given here.
quantityKind: Kd (µg/mL)

> print(dat)
                                     binder  measuredvalue
1  ACTSTGRNACG (disulfide 2-10 (inferred)) [SP7-4 (…)]            716
2  ACLSVNHNACG (disulfide 2-10 (inferred)) [SP7-3 (…)]            423
3  ACSLTVNWNCG (disulfide 2-10 (inferred)) [SP7-2 (…)]            393
4  ACSASTNHNCG (disulfide 2-10 (inferred)) [SP7-5 (…)]            456
5  ACTGSTQHQCG (disulfide 2-10 (inferred)) [SPACE™ peptide (…)]            477
6  ACSATLQHSCG (disulfide 2-10 (inferred)) [SP7-1 (…)]            361
